Test: in vitro
Conditions: human, liver microsomes

# molecular string, qualifying sign, half-life at 5 µM [min]
rows = [
    ("CS(=O)(=O)Nc1ccc2c(c1)S(=O)(=O)N=C(C1=C(O)C3(CC3)CN(Cc3ccc(F)cc3)C1=O)N2", ">", 60),
    ("C#CC[C@]1(C)CN(C2CCCC2)C(=O)C(C2=NS(=O)(=O)c3cc(NS(C)(=O)=O)ccc3N2)=C1O", "=", 43),
    ("CS(=O)(=O)Nc1ccc2c(c1)S(=O)(=O)N=C(C1=C(O)C3(CCCC3)CN(Cc3ccc(F)cc3)C1=O)N2", "=", 28),
    ("CS(=O)(=O)Nc1ccc2c(c1)S(=O)(=O)N=C(C1=C(O)[C@@H]3CCC[C@@H]3N(Cc3ccc(F)cc3)C1=O)N2", ">", 60),
]
